tested.on: human M4 receptor (Homo sapiens (Human), UniProt P08173)
Sequence (P08173 whole entry): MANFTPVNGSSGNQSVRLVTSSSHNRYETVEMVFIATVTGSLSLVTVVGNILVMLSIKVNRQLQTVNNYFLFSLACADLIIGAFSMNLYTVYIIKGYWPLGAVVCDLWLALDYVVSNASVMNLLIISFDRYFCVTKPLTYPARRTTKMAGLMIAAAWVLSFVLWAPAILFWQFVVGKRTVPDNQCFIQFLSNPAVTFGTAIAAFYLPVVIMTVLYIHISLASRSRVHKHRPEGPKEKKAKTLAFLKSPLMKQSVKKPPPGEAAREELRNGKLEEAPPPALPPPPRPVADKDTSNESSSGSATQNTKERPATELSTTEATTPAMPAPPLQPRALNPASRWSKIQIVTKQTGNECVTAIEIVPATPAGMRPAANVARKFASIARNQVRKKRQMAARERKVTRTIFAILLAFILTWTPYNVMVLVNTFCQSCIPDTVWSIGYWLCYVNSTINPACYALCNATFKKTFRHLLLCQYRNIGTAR
protocol.notes: In vitro M4 functional assay (intracellular calcium, FLiPR Tetra)
Format: cell-based
conditions: relative efficacy to an EC100 concentration of acetylcholine; read-out: M4 % RE
Classify as follows. Reported Emax greater than or equal to 70%: 1. Reported Emax below: 0.

// known answers, use as guide
compound | category
CCOC(=O)N1CCC[C@H](N2CCC(n3cccn3)CC2)CC1 [Example 81] | 1
CCOC(=O)N1CCCC(N2CCC(c3nnc(C(C)C)o3)CC2)CC1 (stereo not drawn) [Example 15] | 0
CCOC(=O)N1CCCC(N2CCC(c3cccnc3-c3ccnn3C)CC2)CC1 (stereo not drawn) [Example 64] | 0

Kindly review the next compound as well.
Request: Identify whether the reported Emax of the following compound is 70% or greater: CCOC(=O)N1CCCC(N2CCC(c3nccn3CC(=O)NC3CCCCC3)CC2)CC1 (stereo not drawn) [Example 2]
Response: 0

###

Overview of reported EC50 across a group of molecules:
tested.on: human M2 receptor (Homo sapiens (Human))
Sequence (P08172 whole entry): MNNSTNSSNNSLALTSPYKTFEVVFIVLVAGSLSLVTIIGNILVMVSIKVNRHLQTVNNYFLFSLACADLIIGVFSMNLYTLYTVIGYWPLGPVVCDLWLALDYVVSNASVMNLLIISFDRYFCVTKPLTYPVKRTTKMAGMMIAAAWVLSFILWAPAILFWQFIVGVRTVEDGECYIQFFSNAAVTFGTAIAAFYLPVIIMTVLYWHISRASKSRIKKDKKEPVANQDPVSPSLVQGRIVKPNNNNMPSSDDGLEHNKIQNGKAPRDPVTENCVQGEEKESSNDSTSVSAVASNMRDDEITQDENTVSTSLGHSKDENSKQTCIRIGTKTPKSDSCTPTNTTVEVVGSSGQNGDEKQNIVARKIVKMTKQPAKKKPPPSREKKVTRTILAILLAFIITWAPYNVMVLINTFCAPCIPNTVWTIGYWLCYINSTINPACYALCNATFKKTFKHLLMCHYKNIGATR
protocol.notes: In vitro M2 functional assay (intracellular calcium, FLiPR Tetra)
Assay type: cell-based
conditions: CHOK1 cells stably expressing human M2 receptor and Gα16; calcium flux; No Response = no significant response of calcium flux indicative of agonism
Note: unit nM is implicit; provide only the numeric part.

molecule | result.type | measurement.units | result.value
CCOC(=O)N1CCCC(N2CCC(c3ncccc3OC)CC2)CC1 (stereo not drawn) | EC50 | nM | 160
CCOC(=O)N1CCCC(N2CCC(n3nccc3-c3cnn(C(C)C)c3)CC2)CC1 (stereo not drawn) | EC50 | nM | 680
CCOC(=O)N1CCCC(N2CCC(c3cc(C(F)(F)F)cnc3OC)CC2)CC1 (stereo not drawn) | EC50 | nM | 180
CCOC(=O)N1CCCC(N2CCC(n3cccc3)CC2)CC1 (stereo not drawn) | EC50 | nM | 1540

Request: Requested field: EC50. Item: CCOC(=O)N1CCC(N2CCC(c3cccc(OCC)n3)CC2)CC1
Response: 2020

Request: Moving on to CCOC(=O)N1CCCC(N2CCC(n3nccc3C3CC3)CC2)CC1 (stereo not drawn)
Response: 2260

###

tested.on: human M4 receptor (Homo sapiens (Human))
protocol.notes: In vitro M4 functional assay (intracellular calcium, FLiPR Tetra)
conditions: CHOK1 cells stably expressing human M4 receptor and Gα16; calcium flux
Overview of reported EC50 across a group of compounds:
Note: unit nM is implicit; provide only the numeric part.

Sample records with EC50:
compound | EC50, nM
CCOC(=O)N1CCC[C@@H](N2CCC(n3cccn3)CC2)CC1 | 460
CCOC(=O)N1CCCC(N2CCC(c3cccnc3NCC3CC3)CC2)CC1 (stereo not drawn) | 990
CCOC(=O)N1CCCC(N2CCC(n3nccc3CNC(C)=O)CC2)CC1 (stereo not drawn) | 1480
CCOC(=O)N1CCCC(N2CCC(c3cccc(OC)n3)CC2)CC1 (stereo not drawn) | 180
CCOC(=O)N1CCC(N2CCC(c3nc(OC)cc(OC)n3)CC2)CC1 | 3340

Request: Requested field: EC50. Item: CCOC(=O)N1CCCC(N2CCC(c3ccncc3OC)CC2)CC1 (stereo not drawn)
Response: 370

Request: Moving on to CCOC(=O)N1CCCC(N2CCC(c3cccnc3C3CC3)CC2)CC1 (stereo not drawn)
Response: 120

Request: Moving on to CCOC(=O)N1CCCC(N2CCC(c3cncnc3OC)CC2)CC1 (stereo not drawn)
Response: 310

Request: Moving on to CCOC(=O)N1CCCC(N2CCC(c3cccnc3C)CC2)CC1 (stereo not drawn)
Response: 260

The measurements presented in this section are drawn from patent US10030012B2.
